Target: Tyrosyl-tRNA synthetase, putative (Trypanosoma cruzi (strain CL Brener)) (UniProt Q4DSP6)
Sequence (Q4DSP6 as listed by the source): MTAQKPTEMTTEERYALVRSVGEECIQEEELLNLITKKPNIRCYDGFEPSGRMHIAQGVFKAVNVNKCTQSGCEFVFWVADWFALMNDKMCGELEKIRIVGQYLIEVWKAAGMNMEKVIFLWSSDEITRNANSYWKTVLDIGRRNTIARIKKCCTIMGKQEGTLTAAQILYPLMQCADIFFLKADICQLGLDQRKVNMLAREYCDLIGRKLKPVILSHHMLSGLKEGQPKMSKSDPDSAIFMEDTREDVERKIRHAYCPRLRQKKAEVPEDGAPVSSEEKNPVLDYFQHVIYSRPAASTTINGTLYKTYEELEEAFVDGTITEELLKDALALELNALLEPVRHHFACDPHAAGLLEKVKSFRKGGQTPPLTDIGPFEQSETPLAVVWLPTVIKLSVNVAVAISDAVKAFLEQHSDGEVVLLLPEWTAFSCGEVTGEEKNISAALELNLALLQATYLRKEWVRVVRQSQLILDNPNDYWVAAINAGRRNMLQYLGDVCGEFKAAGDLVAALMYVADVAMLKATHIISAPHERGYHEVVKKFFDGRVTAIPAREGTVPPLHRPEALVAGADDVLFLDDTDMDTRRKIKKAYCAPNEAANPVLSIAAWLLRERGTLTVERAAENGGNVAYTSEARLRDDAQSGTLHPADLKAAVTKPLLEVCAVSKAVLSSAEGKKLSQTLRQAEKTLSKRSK
Assay: Trypanosoma cruzi tyrosyl tRNA synthetase (TcYRS) _High Tyrosine SOP
Type: functional
Parameters: scale not given: in the data most compounds retested in dose-response had high values
Settings: 30 µM
Param label: returns Satisfied when Percent Effect < 5%, returns Not satisfied otherwise, including exact equality.

- COc1ccc(NC(=O)C(c2cccc(F)c2)N2CCOCC2)cc1 (stereo unspecified): Not satisfied
- O=C1NC(c2ccccc2)=N[C@@]12CC[C@@H]1CN(Cc3ccco3)C[C@@H]12: Satisfied
- CC(C)Cc1noc(CN2CCN(C(=O)c3cccc(F)c3)CC2)n1: Satisfied
- Cc1cc(C)n(CC(=O)N2CCC(NS(=O)(=O)c3ccccc3)CC2)n1: Satisfied
- Cc1cnn(CC2CCCN2Cc2cc(=O)n3ccccc3n2)c1 (stereo unspecified): Not satisfied
- CC(=O)c1ccc(OCC(=O)NC(C)CCc2ccco2)cc1 (stereo unspecified): Satisfied
- CC1CN(C(=O)NCCCn2cncn2)CCO1 (stereo unspecified): Not satisfied
- CN(C)C(=O)CO[C@@H]1CC[C@H]2[C@H]1OCCN2C(=O)C1CCOCC1: Not satisfied
- Cc1ccsc1C(=O)N1CC(C(=O)NCC2CC2)C2(CCOCC2)C1 (stereo unspecified): Satisfied
- Cn1ncc2c1NC(=O)CC2c1ccc(Cl)cc1Cl (stereo unspecified): Satisfied
- Cc1ccc(C)c(OC2CCN(C(=O)c3ccc(C)[nH]c3=O)CC2)c1: Not satisfied
